target: Coagulation factor X (Homo sapiens, UniProt P00742)
Sequence (P00742 41-179 limits assumed): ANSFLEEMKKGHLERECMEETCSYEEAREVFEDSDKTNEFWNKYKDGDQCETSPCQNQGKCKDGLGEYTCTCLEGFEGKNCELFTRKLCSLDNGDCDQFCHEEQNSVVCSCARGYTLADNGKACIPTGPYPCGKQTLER
Sequence (P00742 235-488 limits assumed): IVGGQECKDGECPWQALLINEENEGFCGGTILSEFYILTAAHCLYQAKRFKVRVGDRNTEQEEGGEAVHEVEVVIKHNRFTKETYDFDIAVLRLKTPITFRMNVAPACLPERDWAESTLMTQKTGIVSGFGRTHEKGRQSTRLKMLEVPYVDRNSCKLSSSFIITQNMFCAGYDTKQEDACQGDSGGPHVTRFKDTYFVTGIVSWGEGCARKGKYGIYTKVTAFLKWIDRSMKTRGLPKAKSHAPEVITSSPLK
OUTCOME MEASURE: pIC50
pIC50 (log units): -log10 of the concentration in mol/L.

| COMPOUND | OUTCOME MEASURE | MEASURED VALUE |
| --- | --- | --- |
| COC(=O)C(Cc1cccc(C(=N)N)c1)C(/C=C/c1ccccc1)NC(=O)c1ccc(Cc2ccccc2)cc1 (centres undefined) | pIC50 | 6.34 |
| COC(=O)C(Cc1cccc(C(=N)N)c1)C(/C=C/c1ccccc1)NC(=O)c1ccc(C2CCCCC2)cc1 (centres undefined) | pIC50 | 6.24 |

Lookup: What is its pIC50 for Coagulation factor X (Homo sapiens, UniProt P00742)? Entry: COC(=O)C(Cc1cccc(C(=N)N)c1)C(/C=C/c1ccccc1)NC(=O)c1ccc(-c2cccc(OC)c2)cc1 (centres undefined)
Found: 6.96

Lookup: What is its pIC50 for Coagulation factor X (Homo sapiens, UniProt P00742)? Entry: COC(=O)C(Cc1cccc(C(=N)N)c1)C(/C=C/c1ccccc1)NC(=O)C1CCC(C2CCCCC2)CC1 (centres undefined)
Found: 5.95

----------
target: Cationic trypsin (Bos taurus); test: Inhibitory activity against bovine trypsin
In this section we review reported IC50 values for a set of compounds.
Kindly provide the numeric value in nM only, without the unit symbol.

Please review the entries below; each comes with its answer.
| COMPOUND | TEST SYSTEM | READOUT UNITS | IC50 |
| --- | --- | --- | --- |
| CCOc1cccc(-c2ccc(C(=O)NC(/C=C/c3ccccc3)C(Cc3cccc(C(=N)N)c3)C(=O)OC)cc2)c1 (stereo unspecified) | Cationic trypsin (Bos taurus) | nM | 3600 |
| COC(=O)C(Cc1cccc(C(=N)N)c1)C(/C=C/c1ccccc1)NC(=O)c1ccc(-c2cccc(OC)c2)cc1 (stereo unspecified) | Cationic trypsin (Bos taurus) | nM | 2200 |
| COCC(Cc1cccc(C(=N)N)c1)C(/C=C/c1ccccc1)NC(=O)c1ccc(-c2ccccc2)cc1 (stereo unspecified) | Cationic trypsin (Bos taurus) | nM | 10000 |
| COC(=O)C(Cc1cccc(C(=N)N)c1)C(/C=C/c1ccccc1)NC(=O)c1ccc(-c2ccc(OC)cc2)cc1 (stereo unspecified) | Cationic trypsin (Bos taurus) | nM | 2900 |
| COC(=O)C(Cc1cccc(C(=N)N)c1)C(/C=C/c1ccccc1)NC(=O)c1ccc(-c2ccccc2C)cc1 (stereo unspecified) | Cationic trypsin (Bos taurus) | nM | 3100 |

Lookup: Name the recorded IC50 for CCOc1ccccc1-c1ccc(C(=O)NC(/C=C/c2ccccc2)C(Cc2cccc(C(=N)N)c2)C(=O)OC)cc1 (stereo unspecified) .
Found: 1800

Lookup: Name the recorded IC50 for COC(=O)C(Cc1cccc(C(=N)N)c1)C(/C=C/c1ccccc1)NC(=O)c1ccc(-c2ccc(OC)cc2OC)cc1 (stereo unspecified) .
Found: 2900

Lookup: Name the recorded IC50 for COC(=O)C(Cc1cccc(C(=N)N)c1)C(/C=C/c1ccccc1)NC(=O)c1ccc(-c2ccccc2OC)cc1 (stereo unspecified) .
Found: 1800

----------
target: Coagulation factor X (Homo sapiens, UniProt P00742); test: Inhibitory activity against human Coagulation factor X
OUTCOME MEASURE: log10 of IC50 (log10 of the value in nM)
log10 IC50, nM

Please review the entries below; each comes with its answer.
| COMPOUND | log10 of IC50 |
| --- | --- |
| COC(=O)C(Cc1cccc(C(=N)N)c1)C(/C=C/c1ccccc1)NC(=O)c1ccc(-c2ccc(C)cc2)cc1 (stereo not drawn) | 2.38 |
| N=C(N)c1cccc(CC(CO)C(/C=C/c2ccccc2)NC(=O)c2ccc(-c3ccccc3)cc2)c1 (stereo not drawn) | 2.81 |
| CN(C)C(=O)C(Cc1cccc(C(=N)N)c1)C(/C=C/c1ccccc1)NC(=O)c1ccc(-c2ccccc2)cc1 (stereo not drawn) | 3.64 |
| COC(=O)C(Cc1cccc(C(=N)N)c1)C(/C=C/c1ccccc1)NC(=O)c1cccc2ccccc12 (stereo not drawn) | 2.90 |
| COC(=O)C(Cc1cccc(C(=N)N)c1)C(/C=C/c1ccccc1)NC(=O)c1ccccc1 (stereo not drawn) | 2.85 |
| CCc1cccc(-c2ccc(C(=O)NC(/C=C/c3ccccc3)C(Cc3cccc(C(=N)N)c3)C(=O)OC)cc2)c1 (stereo not drawn) | 2.59 |
| COC(=O)[C@@H](Cc1cccc(C(=N)N)c1)[C@@H](/C=C/c1ccccc1)NC(=O)c1ccccc1 | 3.30 |

Lookup: Name the recorded log10 of IC50 for COC(=O)[C@H](Cc1cccc(C(=N)N)c1)[C@@H](CCc1ccccc1)NC(=O)c1ccc(-c2ccccc2)cc1 .
Found: 1.78

----------
target: Prothrombin (Homo sapiens); assay: Inhibitory activity against human Thrombin
In this section we review reported IC50 values for a set of molecules.
Answer with the value and then the unit.

Please review the entries below; each comes with its answer.
| MOLECULE | TEST SYSTEM | OUTCOME MEASURE | MEASURED VALUE |
| --- | --- | --- | --- |
| COC(=O)C(Cc1cccc(C(=N)N)c1)C(/C=C/c1ccccc1)NC(=O)c1ccc(-c2ccccc2OC)cc1 (stereo not drawn) | Prothrombin (Homo sapiens) | IC50 | 3.3 µM |
| COC(=O)C(Cc1cccc(C(=N)N)c1)C(/C=C/c1ccccc1)NC(=O)c1ccc(-c2ccccc2C)cc1 (stereo not drawn) | Prothrombin (Homo sapiens) | IC50 | 9 µM |
| CCc1ccccc1-c1ccc(C(=O)NC(/C=C/c2ccccc2)C(Cc2cccc(C(=N)N)c2)C(=O)OC)cc1 (stereo not drawn) | Prothrombin (Homo sapiens) | IC50 | 5.3 µM |
| COC(=O)C(Cc1cccc(C(=N)N)c1)C(/C=C/c1ccccc1)NC(=O)c1ccc(-c2ccc(OC)c(OC)c2)cc1 (stereo not drawn) | Prothrombin (Homo sapiens) | IC50 | 4.7 µM |
| CCOc1ccccc1-c1ccc(C(=O)NC(/C=C/c2ccccc2)C(Cc2cccc(C(=N)N)c2)C(=O)OC)cc1 (stereo not drawn) | Prothrombin (Homo sapiens) | IC50 | 3.8 µM |
| COC(=O)C(Cc1cccc(C(=N)N)c1)C(/C=C/c1ccccc1)NC(=O)c1ccc(-c2ccc(OC)cc2)cc1 (stereo not drawn) | Prothrombin (Homo sapiens) | IC50 | 2.7 µM |
| COC(=O)C(Cc1cccc(C(=N)N)c1)C(/C=C/c1ccccc1)NC(=O)c1ccc(-c2cccc(OC)c2)cc1 (stereo not drawn) | Prothrombin (Homo sapiens) | IC50 | 2.4 µM |

Now for a further molecule.
Lookup: Name the recorded IC50 for CCc1cccc(-c2ccc(C(=O)NC(/C=C/c3ccccc3)C(Cc3cccc(C(=N)N)c3)C(=O)OC)cc2)c1 (stereo not drawn) .
Found: 1.7 µM

----------
target: Cationic trypsin (Bos taurus); test: Inhibitory activity against bovine trypsin
In this section we review reported IC50 values for a set of molecules.
Kindly provide the numeric value in µM only, without the unit symbol.

Please review the entries below; each comes with its answer.
| MOLECULE | IC50, µM |
| --- | --- |
| CCOc1ccc(-c2ccc(C(=O)NC(/C=C/c3ccccc3)C(Cc3cccc(C(=N)N)c3)C(=O)OC)cc2)cc1 (stereo not drawn) | 2.8 |
| CCc1cccc(-c2ccc(C(=O)NC(/C=C/c3ccccc3)C(Cc3cccc(C(=N)N)c3)C(=O)OC)cc2)c1 (stereo not drawn) | 2.6 |

Now for a further molecule.
Lookup: Name the recorded IC50 for COC(=O)C(Cc1cccc(C(=N)N)c1)C(/C=C/c1ccccc1)NC(=O)c1ccc(-c2ccc(C)cc2)cc1 (stereo not drawn) .
Found: 2.8
